test system: HCC-44; test: relative viability (nuclei count vs DMSO), 5 days (fraction); higher = more cells survive; settings: first compound 0.002 µM
Quick reference for relative viability among some compounds
I only need the number, thanks.

// known answers, use as guide
1. CCNC(=O)c1noc(-c2cc(C(C)C)c(O)cc2O)c1-c1ccc(CN2CCOCC2)cc1 [Luminespib] + CC(=O)Nc1cccc(-n2c(=O)n(C3CC3)c(=O)c3c(Nc4ccc(I)cc4F)n(C)c(=O)c(C)c32)c1 [Trametinib] (partner 0.02 µM) = 0.979
2. CCNC(=O)c1noc(-c2cc(C(C)C)c(O)cc2O)c1-c1ccc(CN2CCOCC2)cc1 [Luminespib] + N=C(N)NC(=N)NCCc1ccccc1 [Phenformin] (partner 250 µM) = 0.245
3. CCNC(=O)c1noc(-c2cc(C(C)C)c(O)cc2O)c1-c1ccc(CN2CCOCC2)cc1 [Luminespib] + Nc1ncn([C@H]2C[C@H](O)[C@@H](CO)O2)c(=O)n1 [Decitabine] (partner 2 µM) = 0.969

Okay, next one:
Hello, please tell me recorded relative viability for this one: CCNC(=O)c1noc(-c2cc(C(C)C)c(O)cc2O)c1-c1ccc(CN2CCOCC2)cc1 [Luminespib] + O=C(c1cc(Cc2n[nH]c(=O)c3ccccc23)ccc1F)N1CCN(C(=O)C2CC2)CC1 [Olaparib] (partner 8 µM) 0.981
